B1: library; numbered along this chain (parent)
chain: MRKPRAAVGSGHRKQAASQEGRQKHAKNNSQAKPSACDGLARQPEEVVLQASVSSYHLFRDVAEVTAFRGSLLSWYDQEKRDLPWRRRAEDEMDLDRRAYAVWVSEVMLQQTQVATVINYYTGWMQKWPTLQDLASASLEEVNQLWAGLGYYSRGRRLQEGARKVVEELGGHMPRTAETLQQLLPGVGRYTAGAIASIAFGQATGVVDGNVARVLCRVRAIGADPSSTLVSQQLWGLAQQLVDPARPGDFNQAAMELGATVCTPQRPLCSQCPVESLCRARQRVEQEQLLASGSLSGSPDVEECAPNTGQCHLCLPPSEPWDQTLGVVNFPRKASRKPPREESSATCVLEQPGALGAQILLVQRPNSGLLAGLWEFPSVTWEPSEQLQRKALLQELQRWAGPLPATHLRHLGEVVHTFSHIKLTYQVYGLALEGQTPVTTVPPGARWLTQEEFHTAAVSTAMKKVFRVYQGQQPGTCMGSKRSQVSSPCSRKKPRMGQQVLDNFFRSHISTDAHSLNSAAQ

Variants of: B1
Procedure text: 8OG:A repair function score (normalized; synonymous = 0, nonsense = -1) (normalized log-likelihood score); higher = more repair activity (WT-like);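 also: cells sorted at 72 h after reporter transfection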
Condition context: with 8OG:A DNA repair reporter (GFP) in HEK-293 MUTYH KO cells
Quick reference for 8OG:A repair function score among some variants
Respond using a number only.

// below: answered variants
Var	Value reported
N307P	-0.0382
Q286I	-0.0426
A238N	-0.887
G475L	0.0136
G356H	-0.148
V53F	-0.00754
L423K	-0.269
P383I	-0.14

Quick one: give measured 8OG:A repair function score for Y56G
-0.0482

Quick one: give measured 8OG:A repair function score for C278D
-1.08

Quick one: give measured 8OG:A repair function score for T263C
-0.141
